Origin of measurements: patent US8192749B2

This document collects PIF 1 values reported for BALB/c 3T3 (CCL-163) cells.
ENDPOINT NAME: PIF 1

See these solved cases before continuing.
{"COMPOUND": "CC1c2ccc(N)c(O)c2C(=O)C2=C(O)C3(O)C(=O)C(C(N)=O)=C(O)CC3C(O)C21 (stereo not drawn)", "PIF 1": 1.0}
{"COMPOUND": "NC(=O)C1=C(O)CC2CC3Cc4c([N+](=O)[O-])ccc(O)c4C(=O)C3=C(O)C2(O)C1=O (stereo not drawn)", "PIF 1": 23.16}
{"COMPOUND": "CC1c2cccc(O)c2C(=O)C2=C(O)C3(O)C(=O)C(C(=O)NCN4CCCC4)=C(O)CC3C(O)C21 (stereo not drawn)", "PIF 1": 40.4}
{"COMPOUND": "CC1c2cccc(O)c2C(=O)C2=C(O)C3(O)C(=O)C(C(N)=O)=C(O)CC3C(O)C21 (stereo not drawn)", "PIF 1": 165}
{"COMPOUND": "CCCCCCCCCCCCCCCC(=O)Nc1ccc2c(c1O)C(=O)C1=C(O)C3(O)C(=O)C(C(N)=O)=C(O)CC3CC1C2 (stereo not drawn)", "PIF 1": 1.0}

P = O=C(NCN1CCNCC1)C1=C(O)CC2CC3Cc4cccc(O)c4C(=O)C3=C(O)C2(O)C1=O (stereo not drawn)
Q = CC1c2ccc([N+](=O)[O-])c(O)c2C(=O)C2=C(O)C3(O)C(=O)C(C(N)=O)=C(O)CC3C(O)C21 (stereo not drawn)
R = CN(C)CC(=O)Nc1ccc2c(c1O)C(=O)C1=C(O)C3(O)C(=O)C(C(N)=O)=C(O)CC3CC1C2 (stereo not drawn)
S = CC1c2cccc(O)c2C(=O)C2=C(O)C3(O)C(=O)C(C(=O)NCN4CCCCC4)=C(O)CC3C(O)C21 (stereo not drawn)
T = O=C(NCN1CCCCC1)C1=C(O)CC2CC3Cc4cccc(O)c4C(=O)C3=C(O)C2(O)C1=O (stereo not drawn)
### Prompt hey, can you rank those compounds up there by PIF 1? biggest number first please Answer with the labels in sequence, matching the requested order.
### Response T, S, P, R, Q

P = CC(=O)Nc1ccc2c(c1O)C(=O)C1=C(O)C3(O)C(=O)C(C(N)=O)=C(O)CC3C(O)C1C2C (stereo not drawn)
Q = O=C(NCN1CCCC1)C1=C(O)CC2CC3Cc4cccc(O)c4C(=O)C3=C(O)C2(O)C1=O (stereo not drawn)
### Prompt Identify the entry with the larger PIF 1. Options: P and Q In your reply, give the label of the chosen option.
### Response Q
(Q: 62.67, P: 1.0)

1 = CN(C)c1cc([N+](=O)[O-])c(O)c2c1CC1CC3CC(O)=C(C(N)=O)C(=O)C3(O)C(O)=C1C2=O (stereo not drawn)
2 = O=C(NCN1CCOCC1)C1=C(O)CC2CC3Cc4cccc(O)c4C(=O)C3=C(O)C2(O)C1=O (stereo not drawn)
### Prompt I would appreciate it if you could say which entry, 1 or 2 , has the lower PIF 1 value. Pick one; state its label.
### Response 1
(1: 1.0, 2: 41.1)

* * *

Below are molecules with their MPE as measured on BALB/c 3T3 (CCL-163) cells.
ENDPOINT NAME: MPE

A selection of reference data follows.
{"MOLECULE": "O=C(NCN1CCCCC1)C1=C(O)CC2CC3Cc4cccc(O)c4C(=O)C3=C(O)C2(O)C1=O (stereo not drawn) [COL 313]", "READOUT NUMBER": 0.462}
{"MOLECULE": "CC1c2cccc(O)c2C(=O)C2=C(O)C3(O)C(=O)C(C(=O)NCN4CCNCC4)=C(O)CC3C(O)C21 (stereo not drawn) [COL 809]", "READOUT NUMBER": 0.420}
{"MOLECULE": "O=C(NCN1CCNCC1)C1=C(O)CC2CC3Cc4cccc(O)c4C(=O)C3=C(O)C2(O)C1=O (stereo not drawn) [COL 315]", "READOUT NUMBER": 0.276}

I = O=C(NCN1CCCC1)C1=C(O)CC2CC3Cc4cccc(O)c4C(=O)C3=C(O)C2(O)C1=O (stereo not drawn) [COL 312]
II = CCCCCCCCCCCCCCCC(=O)Nc1ccc2c(c1O)C(=O)C1=C(O)C3(O)C(=O)C(C(N)=O)=C(O)CC3C(O)C1C2C (stereo not drawn) [COL 803]
III = CN(C)CC(=O)Nc1ccc2c(c1O)C(=O)C1=C(O)C3(O)C(=O)C(C(N)=O)=C(O)CC3CC1C2 (stereo not drawn) [COL 309]
### Prompt Arrange by MPE, high to low. # format: label list in the order the request specifies
### Response I, III, II
(I: 0.442, III: 0.170, II: 0.047)

a = NC(=O)C1=C(O)CC2CC3Cc4c(N)ccc(O)c4C(=O)C3=C(O)C2(O)C1=O (stereo not drawn) [COL 307]
b = Cc1c2c(c(O)c3c(O)cccc13)C(=O)C1C(=O)C(C(N)=O)=C(O)CC1C2 (stereo not drawn) [COL 9]
### Prompt Between a and b , which one shows the larger MPE value? Please respond with the label that marks your chosen entry.
### Response b
(b: 0.546, a: 0.056)
